Kindly supply the reported TGI values for the records listed here.
# Test system: TK-10 renal
# assay info: NCI tumour cell line growth inhibition, 48 h
One number for each entry, in µM.

Worked examples follow.
COC(=O)C1=C2C3=C(C(=O)c4ccccc4C3=O)N(Cc3ccccc3)C2(OC(C)=O)C=CC1=O (stereo not given): 33.8
Cc1nc(NC(=O)COc2cccc(/C=C3\COc4ccccc4C3=O)c2)sc1C: 4.08
COc1cc(C2=Nc3c/c(=C\c4c(O)[nH]c5ccc(Cl)cc45)ccc3=N2)cc(OC)c1OC: 17.4

API: the following record is the query input.
Fill in: TGI of S=C(Nc1ccc(-c2nc3ccccc3s2)cc1)Nc1ccccn1 is ___
70.2
